Data provenance is paper PMC7558026.

# TEST_SYSTEM: AbCGT V183D (Aloe vera, UniProt A0A7G9P699, V183D)
# Sequence (A0A7G9P699 1-470 V183D): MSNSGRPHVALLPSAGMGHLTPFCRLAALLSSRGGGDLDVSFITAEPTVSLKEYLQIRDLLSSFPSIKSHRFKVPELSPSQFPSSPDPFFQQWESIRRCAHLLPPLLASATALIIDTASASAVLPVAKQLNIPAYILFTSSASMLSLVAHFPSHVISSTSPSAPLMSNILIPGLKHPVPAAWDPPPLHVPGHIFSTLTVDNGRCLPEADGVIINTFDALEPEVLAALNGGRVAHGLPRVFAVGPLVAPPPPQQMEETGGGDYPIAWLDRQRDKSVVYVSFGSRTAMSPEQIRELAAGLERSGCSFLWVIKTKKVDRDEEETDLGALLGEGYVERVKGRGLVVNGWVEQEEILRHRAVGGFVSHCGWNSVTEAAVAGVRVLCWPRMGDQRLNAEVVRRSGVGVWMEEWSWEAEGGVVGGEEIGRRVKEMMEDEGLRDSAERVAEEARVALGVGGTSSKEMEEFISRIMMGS
# MEASUREMENT_DESCRIPTION: Glycosyltransferase activity of AbCGT variant V183D
# Format: biochemical, Aloe barbadensis
# CONDITIONS: reaction-2
OBSERVABLE: V183D/yield of O-glycoside(%)

COMPOUND: O=C1CC(O)(c2ccc(O)cc2)Oc2cc(O)cc(O)c21 (centres unmarked) [Compound 23, 2-hydroxynaringenin]
EXPERIMENTAL_VALUE: 0.5
--
COMPOUND: COc1cc(O)c(C(C)=O)c(OC)c1
EXPERIMENTAL_VALUE: 0
--
COMPOUND: CC(=O)c1cc(O)cc(O)c1 [Compound 4, 3,5-dihydroxyacetophenone]
EXPERIMENTAL_VALUE: 0
--
COMPOUND: CC(=O)c1ccc(O)cc1O [Compound 6, 2,4-dihydroxyacetophenone]
EXPERIMENTAL_VALUE: 1.5
--
COMPOUND: Oc1cc(O)cc(OCCCCCCc2ccccc2)c1
EXPERIMENTAL_VALUE: 0
--
COMPOUND: CC(=O)c1cccc(O)c1
EXPERIMENTAL_VALUE: 0
--
COMPOUND: CC(=O)c1c(O)cc(C)cc1O
EXPERIMENTAL_VALUE: 1
--
COMPOUND: CC(=O)c1ccc(O)cc1
EXPERIMENTAL_VALUE: 0
--
COMPOUND: CC(=O)c1c(O)cccc1O
EXPERIMENTAL_VALUE: 0
--
COMPOUND: COc1cc(O)c(C(C)=O)c(O)c1
EXPERIMENTAL_VALUE: 0
--
COMPOUND: CC(=O)c1ccccc1O
EXPERIMENTAL_VALUE: 0
